measurement-target: HLA-B*58:01
assay-explanation: IEDB peptide-MHC binding, purified MHC/direct/fluorescence; filed as Kd, often an IC50 or EC50 that approximates it; bounds were set here for any values at or beyond the usual limits of such assays
test-conditions: source organism: Aracatuba virus
pKd: −log10 of the molar value.
quantity-name: pKd

Req: Specify reported pKd for the sequence shown: LLLLISLVY
Resp: ≤ 4.70

----------
measurement-target: HLA-A*69:01
assay-explanation: IEDB peptide-MHC binding, purified MHC/competitive/fluorescence; filed as Kd, often an IC50 or EC50 that approximates it; bounds were set here for any values at or beyond the usual limits of such assays
test-conditions: source organism: Orthohantavirus tulaense
quantity-name: Kd

Req: Given the sequence FMSRKLHRY , write its reported Kd.
Resp: ≥ 20 µM

----------
measurement-target: HLA-A*30:01
assay-explanation: IEDB peptide-MHC binding, purified MHC/competitive/fluorescence; filed as Kd, often an IC50 or EC50 that approximates it; bounds were set here for any values at or beyond the usual limits of such assays
test-conditions: source organism: Human immunodeficiency virus 1
quantity-name: Kd (µM)
Quick note: give the figure in µM, leave out the unit.

>>> number("EKLKSLYNTV")
0.175

Now for the sequence whose Kd we want.
Req: Using known records, supply Kd for KSLYNTVAVLY
Resp: 4.78

----------
measurement-target: HLA-A*02:02
assay-explanation: IEDB peptide-MHC binding, purified MHC/competitive/radioactivity; filed as Kd, often an IC50 or EC50 that approximates it; bounds were set here for any values at or beyond the usual limits of such assays
test-conditions: source organism: Vaccinia virus WR
quantity-name: Kd (nM)
Provide the reading as a plain figure in nM.

>>> number("ALTDVEKRIL")
96.9
>>> number("QIMECSRML")
620
>>> number("GIKGLDERFV")
6190

Req: Recall the reported Kd of LMELPVKTDI on HLA-A*02:02 and write it down.
Resp: 1510

Req: # return Kd of NLLEQLIENI (system: HLA-A*02:02)
Resp: 836

Req: State Kd (HLA-A*02:02) of DVQRTRCKYV .
Resp: 1070

Req: Please indicate recorded Kd of GLYIPGTSV measured with HLA-A*02:02.
Resp: 111

Req: Enter Kd (test system HLA-A*02:02) for VIIMAINVFT
Resp: 320

Req: Give measured Kd for RIITILQDIV (HLA-A*02:02).
Resp: 595

Req: Give Kd for PMSRLFMDEI tested on HLA-A*02:02.
Resp: 1930

Req: Report Kd from HLA-A*02:02 testing of KVTVPTNDHI
Resp: 4710

----------
measurement-target: HLA-B*58:01
assay-explanation: IEDB peptide-MHC binding, purified MHC/direct/fluorescence; filed as Kd, often an IC50 or EC50 that approximates it; bounds were set here for any values at or beyond the usual limits of such assays
test-conditions: source organism: SARS-CoV1
// values below are reported Kd
Reply numerically in nM, unit not repeated.

>>> number("ASHFISNSW")
72
>>> number("TSNPKTPKY")
212
>>> number("LQIPFAMQM")
986

As a next step, examine the sequence that follows.
Req: Give Kd; test system HLA-B*58:01; sequence ILGTVSWNL
Resp: 804

----------
measurement-target: HLA-B*53:01
assay-explanation: IEDB peptide-MHC binding, purified MHC/competitive/radioactivity; filed as Kd, often an IC50 or EC50 that approximates it; bounds were set here for any values at or beyond the usual limits of such assays
test-conditions: source organism: Triticum aestivum
quantity-name: pKd
pKd (log units): -log10 of the concentration in mol/L.

>>> number("QPFLQPQLPY")
5.34

# next sequence below
Req: Return value of pKd for input YPLGQGSF , no commentary.
Resp: 5.78

----------
measurement-target: HLA-B*51:01
assay-explanation: IEDB peptide-MHC binding, purified MHC/competitive/fluorescence; filed as Kd, often an IC50 or EC50 that approximates it; bounds were set here for any values at or beyond the usual limits of such assays
test-conditions: source organism: Bos taurus
pKd: −log10 of the molar value.
quantity-name: pKd

Req: Please indicate recorded pKd of KLGEGFKSL measured with HLA-B*51:01.
Resp: ≤ 4.70

----------
measurement-target: HLA-A*26:01
assay-explanation: IEDB peptide-MHC binding, purified MHC/competitive/radioactivity; filed as Kd, often an IC50 or EC50 that approximates it; bounds were set here for any values at or beyond the usual limits of such assays
test-conditions: source organism: Triticum aestivum
quantity-name: Kd (nM)
Return type: number; implicit unit nM.

>>> number("ETLPAMCNVY")
205

Req: Give me measured Kd, please, for this sequence: AMCNVYIPPY
Resp: 854

----------
measurement-target: HLA-B*07:02
assay-explanation: IEDB peptide-MHC binding, purified MHC/competitive/fluorescence; filed as Kd, often an IC50 or EC50 that approximates it; bounds were set here for any values at or beyond the usual limits of such assays
test-conditions: source organism: Mycobacterium tuberculosis C
pKd: −log10 of the molar value.
quantity-name: pKd

Req: Return the recorded pKd value; entry: TIHLATAPK
Resp: ≤ 4.70

----------
measurement-target: HLA-A*03:01
assay-explanation: IEDB peptide-MHC binding, purified MHC/direct/fluorescence; filed as Kd, often an IC50 or EC50 that approximates it; bounds were set here for any values at or beyond the usual limits of such assays
test-conditions: source organism: Araucaria virus
quantity-name: Kd

Req: Determine its reported Kd: AFMATNKAY
Resp: ≥ 20 µM

----------
measurement-target: HLA-B*40:01
assay-explanation: IEDB peptide-MHC binding, purified MHC/direct/fluorescence; filed as Kd, often an IC50 or EC50 that approximates it; bounds were set here for any values at or beyond the usual limits of such assays
test-conditions: source organism: Giardia intestinalis
pKd: −log10 of the molar value.
quantity-name: pKd

Req: Read off the recorded pKd for GPRRAAWRI
Resp: ≤ 4.70

----------
measurement-target: HLA-C*04:01
assay-explanation: IEDB peptide-MHC binding, purified MHC/direct/fluorescence; filed as Kd, often an IC50 or EC50 that approximates it; bounds were set here for any values at or beyond the usual limits of such assays
test-conditions: source organism: Mammarenavirus lassaense
pKd: −log10 of the molar value.
quantity-name: pKd

Req: Output measured pKd for this item: FYADPKRYF
Resp: ≤ 4.70

----------
measurement-target: HLA-B*57:01
assay-explanation: IEDB peptide-MHC binding, purified MHC/competitive/fluorescence; filed as Kd, often an IC50 or EC50 that approximates it; bounds were set here for any values at or beyond the usual limits of such assays
test-conditions: source organism: Orthohantavirus negraense
quantity-name: Kd

Req: Write down Kd measured for item NIYETEFFM
Resp: ≥ 20 µM

----------
measurement-target: HLA-B*46:01
assay-explanation: IEDB peptide-MHC binding, purified MHC/competitive/fluorescence; filed as Kd, often an IC50 or EC50 that approximates it; bounds were set here for any values at or beyond the usual limits of such assays
test-conditions: source organism: Vibrio parahaemolyticus K5030
quantity-name: Kd

Req: Could you please provide reported Kd for WLGDVWQEK ? Thanks!
Resp: ≥ 20 µM

----------
measurement-target: HLA-B*58:01
assay-explanation: IEDB peptide-MHC binding, purified MHC/direct/fluorescence; filed as Kd, often an IC50 or EC50 that approximates it; bounds were set here for any values at or beyond the usual limits of such assays
test-conditions: source organism: Cryptosporidium parvum
quantity-name: pKd
Convention used: pKd is expressed as -log10 of the molar concentration.

Req: Item KAFPLIQNM : provide pKd
Resp: 7.91

----------
measurement-target: HLA-B*51:01
assay-explanation: IEDB peptide-MHC binding, purified MHC/competitive/fluorescence; filed as Kd, often an IC50 or EC50 that approximates it; bounds were set here for any values at or beyond the usual limits of such assays
test-conditions: source organism: Lechiguanas virus
quantity-name: Kd

Req: Read off the recorded Kd for LQPSDTLLF
Resp: ≥ 20 µM

----------
measurement-target: HLA-A*03:01
assay-explanation: IEDB peptide-MHC binding, purified MHC/competitive/fluorescence; filed as Kd, often an IC50 or EC50 that approximates it; bounds were set here for any values at or beyond the usual limits of such assays
test-conditions: source organism: Bos taurus
pKd: −log10 of the molar value.
quantity-name: pKd

Req: Given the sequence KLGEGFKSL , write its reported pKd.
Resp: ≤ 4.70

----------
measurement-target: HLA-B*39:01
assay-explanation: IEDB peptide-MHC binding, purified MHC/competitive/fluorescence; filed as Kd, often an IC50 or EC50 that approximates it; bounds were set here for any values at or beyond the usual limits of such assays
test-conditions: source organism: Yersinia pestis Nepal516
quantity-name: Kd (nM)
Note: unit nM is implicit; provide only the numeric part.

Req: Please supply the value of reported Kd for the item FSYNVAYAI
Resp: 469

----------
measurement-target: HLA-A*68:02
assay-explanation: IEDB peptide-MHC binding, purified MHC/competitive/fluorescence; filed as Kd, often an IC50 or EC50 that approximates it; bounds were set here for any values at or beyond the usual limits of such assays
test-conditions: source organism: Entamoeba dispar SAW760
quantity-name: Kd

Req: Specify Kd for KGFFRVFKK and stop.
Resp: ≥ 20 µM

These measurements were taken from the Immune Epitope Database (IEDB).
